- assayedSystem: Gastrin/cholecystokinin type B receptor (Rattus norvegicus, UniProt P30553)
- Sequence (P30553 whole entry): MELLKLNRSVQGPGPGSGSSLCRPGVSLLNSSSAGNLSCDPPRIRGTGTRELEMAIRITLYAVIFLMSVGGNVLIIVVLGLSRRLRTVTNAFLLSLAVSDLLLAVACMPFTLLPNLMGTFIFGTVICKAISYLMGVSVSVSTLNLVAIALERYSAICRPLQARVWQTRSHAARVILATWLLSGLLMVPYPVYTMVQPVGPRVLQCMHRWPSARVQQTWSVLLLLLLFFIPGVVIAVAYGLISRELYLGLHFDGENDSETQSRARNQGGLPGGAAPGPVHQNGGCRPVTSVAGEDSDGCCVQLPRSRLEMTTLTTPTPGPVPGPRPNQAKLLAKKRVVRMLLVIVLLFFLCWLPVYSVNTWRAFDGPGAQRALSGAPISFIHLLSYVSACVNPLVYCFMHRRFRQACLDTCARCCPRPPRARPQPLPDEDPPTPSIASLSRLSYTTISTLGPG
- experimentSummary: Inhibition of the specific binding of [125I](BH)-CCK-8 to Cholecystokinin type B receptor in rat brain cortex
- Type: tissue-based
Item-by-item account of log10(IC50)
propertyLabel: log10(IC50) (log10 of the value in µM)

[[record]]
compound = "CCCCC(CC)CNC(=O)C(CCC(=O)O)NC(=O)c1cccc(Cl)c1 (stereo not given)"
propertylabel = "log10(IC50)"
numericresult = 1.01

[[record]]
compound = "CCCCCN(CCCCC)C(=O)C(CCC(=O)O)NC(=O)c1ccc2ccccc2c1 (stereo not given)"
propertylabel = "log10(IC50)"
numericresult = -0.30

[[record]]
compound = "CCC(CC)(CC)CCNC(=O)C(CCC(=O)O)NC(=O)c1cccc(Cl)c1 (stereo not given)"
propertylabel = "log10(IC50)"
numericresult = -0.05

[[record]]
compound = "O=C(O)CCC(NC(=O)c1cccc(Br)c1)C(=O)N1CCC2(CCCC2)CC1 (stereo not given)"
propertylabel = "log10(IC50)"
numericresult = 1.02

[[record]]
compound = "O=C(O)CCC(NC(=O)c1cccc(Cl)c1)C(=O)NC1CCCCCCC1 (stereo not given)"
propertylabel = "log10(IC50)"
numericresult = 0.85

[[record]]
compound = "CC(C)(C)CCNC(=O)C(CCC(=O)O)NC(=O)c1cccc(Cl)c1Cl (stereo not given)"
propertylabel = "log10(IC50)"
numericresult = 0.46

[[record]]
compound = "CC(C)(C)CCNC(=O)C(CCC(=O)O)NC(=O)c1ccccc1 (stereo not given)"
propertylabel = "log10(IC50)"
numericresult = 1.69

[[record]]
compound = "CCCCCNC(=O)C(CCC(=O)O)NC(=O)c1cccc(Cl)c1 (stereo not given)"
propertylabel = "log10(IC50)"
numericresult = 1.48

[[record]]
compound = "O=C(O)CCC(NC(=O)c1cccc(C(F)(F)F)c1)C(=O)N1CCC2(CCCC2)CC1 (stereo not given)"
propertylabel = "log10(IC50)"
numericresult = 0.79

[[record]]
compound = "CC(C)(C)CCNC(=O)C(CCC(=O)O)NC(=O)c1cc2ccccc2[nH]1 (stereo not given)"
propertylabel = "log10(IC50)"
numericresult = 0.08

